# System: KHYG-1 NK cell-mediated lysis of K562 cells
# assay remarks: Inhibition of KHYG-1 NK cell-mediated lysis of K562 cells (51Cr release)
# Type: cell-based
# applied conditions: K562 target cells, Effector:Target 2:1, 4 hours at 37° C., 20 µM
Consider the following compounds; for each one, report its Inhibition of KHYG-1 at 20 μM (%).
Please append the unit to your numeric answer.

Query: Item under review: `CN1Cc2cc(-c3ccc(-c4cnc(F)c(NS(=O)(=O)c5ccc(F)cc5F)c4)s3)ccc2C1=O` . Reported Inhibition of KHYG-1 at 20 μM (%)?
Result: 48%

Query: Any idea what Inhibition of KHYG-1 at 20 μM (%) was measured for CN1Cc2cc(-c3ccc(-c4ccc(OC(F)(F)F)c(NS(=O)(=O)c5ccccn5)c4)s3)ccc2C1=O [Compound 63.Na] ?
Result: 77.07 ± 5%

Query: Look at this compound and give its reported Inhibition of KHYG-1 at 20 μM (%). CN1Cc2cc(-c3ccc(-c4ccc(OC(F)(F)F)c(NS(=O)(=O)c5ccccn5)c4)s3)ccc2C1=O [Compound 63]
Result: 56.14 ± 9%

Query: Given `CN1Cc2cc(-c3ccc(-c4cncc(NS(=O)(=O)c5ccc([N+](=O)[O-])cc5)c4)s3)ccc2C1=O` , state its recorded Inhibition of KHYG-1 at 20 μM (%).
Result: 49%
